These data points were gathered from paper PMC11784026.

# Test: Plasma pharmacokinetics after single ascending doses (SAD), phase 1
# Type: in vivo, human (healthy adult participants)
# Assay Context: human, single 1-h IV infusion 100 mg, plasma, apparent terminal half-life, n = 6, arithmetic mean ± SD
Where a SMILES comes first, the peptide text is derived from it. Bridges are numbered along the chain shown (N, C = ends). [ ]: non-standard residue; d: D form. The star is where a group is joined. X1 = O=C(c1ccc(Cl)cc1Cl)*; Dab = NCC[C@H](N)C(=O)O; Abu = CC[C@H](N)C(=O)O; Dap = NC[C@H](N)C(=O)O
Reported Metric: half-life (h)

CC[C@@H]1NC(=O)[C@@H](CC(C)C)NC(=O)[C@H](CCN)NC(=O)[C@@H](NC(=O)[C@H](CN)NC(=O)[C@@H](NC(=O)[C@H](CCN)NC(=O)c2ccc(Cl)cc2Cl)[C@@H](C)O)CCNC(=O)[C@H]([C@@H](C)O)NC(=O)[C@H](CCN)NC(=O)[C@H](CCN)NC1=O [BRII-693] (X1-[Dab]T[Dap][Dab][Dab][dL][Abu][Dab][Dab]T; lactam 4-C; N-terminus assumed): 4.07

====

# Test: Plasma pharmacokinetics after multiple ascending doses (MAD), phase 1
# Type: in vivo, human (healthy adult participants)
# Assay Context: human, plasma, iv, 150 mg, Last q6h dose (day 14), 14-day MAD 150 mg q6h × 14, non-Chinese, n = 10, arithmetic mean ± SD
Where a SMILES comes first, the peptide text is derived from it. Bridges are numbered along the chain shown (N, C = ends). [ ]: non-standard residue; d: D form. The star is where a group is joined. X1 = O=C(c1ccc(Cl)cc1Cl)*; Dab = NCC[C@H](N)C(=O)O; Abu = CC[C@H](N)C(=O)O; Dap = NC[C@H](N)C(=O)O
Reported Metric: half-life (h)

CC[C@@H]1NC(=O)[C@@H](CC(C)C)NC(=O)[C@H](CCN)NC(=O)[C@@H](NC(=O)[C@H](CN)NC(=O)[C@@H](NC(=O)[C@H](CCN)NC(=O)c2ccc(Cl)cc2Cl)[C@@H](C)O)CCNC(=O)[C@H]([C@@H](C)O)NC(=O)[C@H](CCN)NC(=O)[C@H](CCN)NC1=O [BRII-693] (X1-[Dab]T[Dap][Dab][Dab][dL][Abu][Dab][Dab]T; lactam 4-C; N-terminus assumed): 15.6

====

# Test: Plasma pharmacokinetics after single ascending doses (SAD), phase 1
# Type: in vivo, human (healthy adult participants)
# Assay Context: human, single 1-h IV infusion 300 mg, plasma, n = 6, arithmetic mean ± SD
Where a SMILES comes first, the peptide text is derived from it. Bridges are numbered along the chain shown (N, C = ends). [ ]: non-standard residue; d: D form. The star is where a group is joined. X1 = O=C(c1ccc(Cl)cc1Cl)*; Dab = NCC[C@H](N)C(=O)O; Abu = CC[C@H](N)C(=O)O; Dap = NC[C@H](N)C(=O)O
Reported Metric: Cmax (ng/mL)

CC[C@@H]1NC(=O)[C@@H](CC(C)C)NC(=O)[C@H](CCN)NC(=O)[C@@H](NC(=O)[C@H](CN)NC(=O)[C@@H](NC(=O)[C@H](CCN)NC(=O)c2ccc(Cl)cc2Cl)[C@@H](C)O)CCNC(=O)[C@H]([C@@H](C)O)NC(=O)[C@H](CCN)NC(=O)[C@H](CCN)NC1=O [BRII-693] (X1-[Dab]T[Dap][Dab][Dab][dL][Abu][Dab][Dab]T; lactam 4-C; N-terminus assumed): 17300

====

# Test: Plasma pharmacokinetics after single ascending doses (SAD), phase 1
# Type: in vivo, human (healthy adult participants)
# Assay Context: human, single 1-h IV infusion 25 mg, plasma, n = 5, arithmetic mean ± SD
Where a SMILES comes first, the peptide text is derived from it. Bridges are numbered along the chain shown (N, C = ends). [ ]: non-standard residue; d: D form. The star is where a group is joined. X1 = O=C(c1ccc(Cl)cc1Cl)*; Dab = NCC[C@H](N)C(=O)O; Abu = CC[C@H](N)C(=O)O; Dap = NC[C@H](N)C(=O)O
Reported Metric: AUC(0-inf) (ng·h/mL)

CC[C@@H]1NC(=O)[C@@H](CC(C)C)NC(=O)[C@H](CCN)NC(=O)[C@@H](NC(=O)[C@H](CN)NC(=O)[C@@H](NC(=O)[C@H](CCN)NC(=O)c2ccc(Cl)cc2Cl)[C@@H](C)O)CCNC(=O)[C@H]([C@@H](C)O)NC(=O)[C@H](CCN)NC(=O)[C@H](CCN)NC1=O [BRII-693] (X1-[Dab]T[Dap][Dab][Dab][dL][Abu][Dab][Dab]T; lactam 4-C; N-terminus assumed): 5940

====

# Test: Plasma pharmacokinetics after multiple ascending doses (MAD), phase 1
# Format: in vivo, human (healthy adult participants)
# Assay Context: human, plasma, iv, 200 mg, First q6h dose (day 3), 7-day MAD 200 mg q6h × 7, n = 5, median (range); read-out: Tmax
Where a SMILES comes first, the peptide text is derived from it. Bridges are numbered along the chain shown (N, C = ends). [ ]: non-standard residue; d: D form. The star is where a group is joined. X1 = O=C(c1ccc(Cl)cc1Cl)*; Dab = NCC[C@H](N)C(=O)O; Abu = CC[C@H](N)C(=O)O; Dap = NC[C@H](N)C(=O)O
Reported Metric: Tmax (h)

CC[C@@H]1NC(=O)[C@@H](CC(C)C)NC(=O)[C@H](CCN)NC(=O)[C@@H](NC(=O)[C@H](CN)NC(=O)[C@@H](NC(=O)[C@H](CCN)NC(=O)c2ccc(Cl)cc2Cl)[C@@H](C)O)CCNC(=O)[C@H]([C@@H](C)O)NC(=O)[C@H](CCN)NC(=O)[C@H](CCN)NC1=O [BRII-693] (X1-[Dab]T[Dap][Dab][Dab][dL][Abu][Dab][Dab]T; lactam 4-C; N-terminus assumed): 1.08

====

# Test: Plasma pharmacokinetics after single ascending doses (SAD), phase 1
# Assay type: in vivo, human (healthy adult participants)
# Assay Context: human, single 1-h IV infusion 10 mg, plasma, n = 6, median (range)
Where a SMILES comes first, the peptide text is derived from it. Bridges are numbered along the chain shown (N, C = ends). [ ]: non-standard residue; d: D form. The star is where a group is joined. X1 = O=C(c1ccc(Cl)cc1Cl)*; Dab = NCC[C@H](N)C(=O)O; Abu = CC[C@H](N)C(=O)O; Dap = NC[C@H](N)C(=O)O
Reported Metric: Tmax (h)

CC[C@@H]1NC(=O)[C@@H](CC(C)C)NC(=O)[C@H](CCN)NC(=O)[C@@H](NC(=O)[C@H](CN)NC(=O)[C@@H](NC(=O)[C@H](CCN)NC(=O)c2ccc(Cl)cc2Cl)[C@@H](C)O)CCNC(=O)[C@H]([C@@H](C)O)NC(=O)[C@H](CCN)NC(=O)[C@H](CCN)NC1=O [BRII-693] (X1-[Dab]T[Dap][Dab][Dab][dL][Abu][Dab][Dab]T; lactam 4-C; N-terminus assumed): 1.12

====

# Test: Plasma pharmacokinetics after single ascending doses (SAD), phase 1
# Type: in vivo, human (healthy adult participants)
# Assay Context: human, plasma, single 1-h IV infusion 300 mg, volume of distribution during terminal phase, n = 6, arithmetic mean ± SD, read-out: VZ
Where a SMILES comes first, the peptide text is derived from it. Bridges are numbered along the chain shown (N, C = ends). [ ]: non-standard residue; d: D form. The star is where a group is joined. X1 = O=C(c1ccc(Cl)cc1Cl)*; Dab = NCC[C@H](N)C(=O)O; Abu = CC[C@H](N)C(=O)O; Dap = NC[C@H](N)C(=O)O
Reported Metric: Vd (L)

CC[C@@H]1NC(=O)[C@@H](CC(C)C)NC(=O)[C@H](CCN)NC(=O)[C@@H](NC(=O)[C@H](CN)NC(=O)[C@@H](NC(=O)[C@H](CCN)NC(=O)c2ccc(Cl)cc2Cl)[C@@H](C)O)CCNC(=O)[C@H]([C@@H](C)O)NC(=O)[C@H](CCN)NC(=O)[C@H](CCN)NC1=O [BRII-693] (X1-[Dab]T[Dap][Dab][Dab][dL][Abu][Dab][Dab]T; lactam 4-C; N-terminus assumed): 25.8

====

# Test: Plasma pharmacokinetics after multiple ascending doses (MAD), phase 1
# Format: in vivo, human (healthy adult participants)
# Assay Context: human, plasma, iv, 150 mg, First q6h dose (day 1), 14-day MAD 150 mg q6h × 14, Chinese, n = 10, arithmetic mean ± SD; read-out: VZ
Where a SMILES comes first, the peptide text is derived from it. Bridges are numbered along the chain shown (N, C = ends). [ ]: non-standard residue; d: D form. The star is where a group is joined. X1 = O=C(c1ccc(Cl)cc1Cl)*; Dab = NCC[C@H](N)C(=O)O; Abu = CC[C@H](N)C(=O)O; Dap = NC[C@H](N)C(=O)O
Reported Metric: Vd (L)

CC[C@@H]1NC(=O)[C@@H](CC(C)C)NC(=O)[C@H](CCN)NC(=O)[C@@H](NC(=O)[C@H](CN)NC(=O)[C@@H](NC(=O)[C@H](CCN)NC(=O)c2ccc(Cl)cc2Cl)[C@@H](C)O)CCNC(=O)[C@H]([C@@H](C)O)NC(=O)[C@H](CCN)NC(=O)[C@H](CCN)NC1=O [BRII-693] (X1-[Dab]T[Dap][Dab][Dab][dL][Abu][Dab][Dab]T; lactam 4-C; N-terminus assumed): 14.4
